# ASSAY COMMENT: Induction of neurite outgrowth in rat hippocampal neurons assessed as neurite total length at 15.625 ng/ml after 48 hrs relative to control
# Assay type: functional, Hippocampal neurone
Below, each of the molecules is paired with its reported Activity value.
Numbers only here, please. The scale is %.

# example entries with known answers
MOLECULE: CCC(C)CC1=N[C@@H](CCCCN2C[C@@H](c3ccccc3)N(CCCC3CCCCC3)C2=S)CN1 (some centres undefined)
Activity (%): 139
//
MOLECULE: CCC(C)CC1=N[C@@H](CCCCN2C[C@@H](CC(C)C)N(CCCCC(C)C)C2=S)CN1 (some centres undefined)
Activity (%): 122.8
//
MOLECULE: CCC(C)C1=N[C@@H](CCCCN2C[C@@H](c3ccccc3)N(CC3CCC(C)CC3)C2=S)CN1 (some centres undefined)
Activity (%): 190

Prompt: Fill in: Activity of "CC(C)CCCCN1C(=S)N(CCCC[C@H]2CNC(CC3CCCC3)=N2)C[C@H]1c1ccccc1" is ___
Response: 173.9

Prompt: For CC1CCC(CN2C(=S)N(CCCC[C@H]3CNC(CCCc4ccccc4)=N3)C[C@H]2c2ccccc2)CC1 (some centres undefined) then?
Response: 184.9

Prompt: Another molecule: CCC(C)C1=N[C@@H](CCCCN2C[C@@H](CC(C)C)N(CC3CCC(C)CC3)C2=S)CN1 (some centres undefined)
Response: 131.1

Prompt: Now the same for "CC(C)CCCCN1C(=S)N(CCCC[C@H]2CNC(CCCCc3ccccc3)=N2)C[C@H]1C"
Response: 116.4

Prompt: Further, for "S=C1N(CCCC[C@H]2CNC(C3CCCC3)=N2)C[C@@H](c2ccccc2)N1CCC1CCCCC1" ?
Response: 182.3

Prompt: Here is the next molecule: "CC(C)CCCCN1C(=S)N(CCCC[C@H]2CNC(CCCCc3ccccc3)=N2)C[C@H]1c1ccccc1"
Response: 113.8
